- System: α-1,4-glucan lyase
- methodSummary: Inhibition studies of α-1,4-glucan lyase activity
- Type: biochemical, Gracilariopsis lemaneiformis
- details: 0.1M; amylopectin as substrate
- Method: The reaction mixture for the assay of α-1,4-glucan lyase was composed of 240 μl 62.5 mM Mops-NaOH containing 6 mg soluble starch (pH 6.2), the enzyme preparation and distilled water to a final volume of 300 μl. The reaction was carried out at 30° C. for 10-30 min. Liberated 1,5-anhydrofructose was determined by monitoring the absorbance at 546 nm after the addition of 3,5-dinitrosalicylic acid reagent. […]
assayMetric: inhibition of enzymic activity

In [3]: df
Out[3]:
                                   compound  recordedvalue
0  OC[C@H]1O[C@@H](O[C@H]2[C@H](O)[C@@H](O)C(O)O[C@@H]2CO)[C@H](O)[C@@H](O)[C@H]1O (stereo partly shown)  no inhibition
1  OC[C@H]1O[C@H](OC[C@H]2OC(O)[C@H](O)[C@@H](O)[C@@H]2O)[C@H](O)[C@@H](O)[C@H]1O (stereo partly shown)  no inhibition
2                                  OCC(O)CO  no inhibition
3  OC[C@@H](O)[C@@H](O[C@H]1O[C@H](CO)[C@@H](O)[C@H](O)[C@H]1O)[C@H](O)[C@@H](O)CO           ~27%

----------
- Tested on: α-1,4-glucan lyase
- methodSummary: Substrate specificity of α-1,4-glucan lyase (release of 1,5-anhydrofructose, DNS method, 15 min)
- Type: biochemical, Gracilariopsis lemaneiformis
- details: substrate 10 mg ml^-1; incubation 15 min
- Experimental: When amylopectin was used as a substrate, the activity reached maximum 8 mg ml^-1 and then decreased slightly at 20 mg ml^-1. The same results were obtained with soluble starch and maltoheptaose. When maltotriose and maltose were used as substrates, the activity reached maximum at 2 mg ml^-1 and 6 mg ml^-1, respectively. […] When the activity measured at 10 mg ml^-1 was compared at 2 mg ml^-1 and 4 mg ml^-1, substrate inhibition could be clearly seen among the maltosaccharides of DP 3-5. […]

molecule	assaySystem	u	Activity (% of Maltoheptaose)
OC[C@H]1O[C@H](O[C@H]2[C@H](O)[C@@H](O)[C@@H](O[C@H]3[C@H](O)[C@@H](O)[C@@H](O[C@H]4[C@H](O)[C@@H](O)[C@@H](O[C@H]5[C@H](O)[C@@H](O)C(O)O[C@@H]5CO)O[C@@H]4CO)O[C@@H]3CO)O[C@@H]2CO)[C@H](O)[C@@H](O)[C@@H]1O (stereo partly drawn) [Maltopentaose, maltopentaose]	α-1,4-glucan lyase	%	36.6
OC[C@H]1O[C@H](O[C@H]2[C@H](O)[C@@H](O)[C@@H](O[C@H]3[C@H](O)[C@@H](O)[C@@H](O[C@H]4[C@H](O)[C@@H](O)[C@@H](O[C@H]5[C@H](O)[C@@H](O)[C@@H](O[C@H]6[C@H](O)[C@@H](O)C(O)O[C@@H]6CO)O[C@@H]5CO)O[C@@H]4CO)O[C@@H]3CO)O[C@@H]2CO)[C@H](O)[C@@H](O)[C@@H]1O (stereo partly drawn) [Maltohexaose, maltohexaose]	α-1,4-glucan lyase	%	74.6
OC[C@H]1O[C@H](O[C@H]2[C@H](O)[C@@H](O)[C@H](O)O[C@@H]2CO)[C@H](O)[C@@H](O)[C@@H]1O [Maltose, maltose]	α-1,4-glucan lyase	%	66.7
OC[C@H]1O[C@H](O[C@H]2[C@H](O)[C@@H](O)[C@@H](O[C@H]3[C@H](O)[C@@H](O)[C@@H](O[C@H]4[C@H](O)[C@@H](O)[C@@H](O[C@H]5[C@H](O)[C@@H](O)[C@@H](O[C@H]6[C@H](O)[C@@H](O)[C@@H](O[C@H]7[C@H](O)[C@@H](O)C(O)O[C@@H]7CO)O[C@@H]6CO)O[C@@H]5CO)O[C@@H]4CO)O[C@@H]3CO)O[C@@H]2CO)[C@H](O)[C@@H](O)[C@@H]1O (stereo partly drawn) [Maltoheptaose, maltoheptaose]	α-1,4-glucan lyase	%	100.0
OC[C@H]1O[C@H](O[C@H]2[C@H](O)[C@@H](O)[C@@H](O[C@H]3[C@H](O)[C@@H](O)C(O)O[C@@H]3CO)O[C@@H]2CO)[C@H](O)[C@@H](O)[C@@H]1O (stereo partly drawn) [Maltotriose, maltotriose]	α-1,4-glucan lyase	%	39.1
OC[C@H]1O[C@H](O[C@H]2[C@H](O)[C@@H](O)[C@@H](O[C@H]3[C@H](O)[C@@H](O)[C@@H](O[C@H]4[C@H](O)[C@@H](O)C(O)O[C@@H]4CO)O[C@@H]3CO)O[C@@H]2CO)[C@H](O)[C@@H](O)[C@@H]1O (stereo partly drawn) [Maltotetraose, maltotetraose]	α-1,4-glucan lyase	%	27.8
